- TGT: 5-HT2 receptor (Sus scrofa, UniProt P50129)
- Construct: membrane preparations from porcine cortical material; from tissue; host or cells: porcine cerebral cortex membranes
- Sequence (P50129 whole entry): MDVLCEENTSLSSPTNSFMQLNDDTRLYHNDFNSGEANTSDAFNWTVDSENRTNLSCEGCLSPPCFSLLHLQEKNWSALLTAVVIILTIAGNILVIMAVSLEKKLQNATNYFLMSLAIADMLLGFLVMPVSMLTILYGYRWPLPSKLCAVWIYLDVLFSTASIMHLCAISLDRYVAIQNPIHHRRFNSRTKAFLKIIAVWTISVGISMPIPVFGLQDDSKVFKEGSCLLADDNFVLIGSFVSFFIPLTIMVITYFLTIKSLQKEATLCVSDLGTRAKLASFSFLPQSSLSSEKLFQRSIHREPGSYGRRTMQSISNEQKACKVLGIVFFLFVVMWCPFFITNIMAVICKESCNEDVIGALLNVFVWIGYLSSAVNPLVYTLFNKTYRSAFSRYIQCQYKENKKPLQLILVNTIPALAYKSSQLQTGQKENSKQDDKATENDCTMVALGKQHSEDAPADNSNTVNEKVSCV
- PROCEDURE DETAILS: radioligand binding, porcine cortical membranes, [^3H]ketanserin
- STUDY CONDITIONS: porcine cortical membranes, [^3H]ketanserin
pKi: −log10 of the molar value.
Record form. Attribute: pKi. Fill in for each entry.

I am curious: what pKi value has been reported for COc1ccccc1N1CCN(CCCCOc2ccn3ncc(C(C)=O)c3c2)CC1 [Example E28] ?
5.52 to 6.52

Same again, this time with O=Cc1cnn2ccc(OCCCCN3CCN(c4ccc(O)cc4)CC3)cc12 [Example E26]
5.52 to 6.52

Same for COC(=O)c1cnn2ccc(OCCCCN3CCN(c4cccc(Cl)c4Cl)CC3)cc12 [Example E39]
6.52 to 7.52

Also O=Cc1c(OCCCCN2CCN(c3cccc(Cl)c3Cl)CC2)nn2ccccc12 [Example E4] ?
6.52 to 7.52

Would you kindly repeat that for Clc1cccc(N2CCN(CCCCOc3ccn4nccc4c3)CC2)c1Cl [Example E15] ?
5.52 to 6.52

// same read-out, input: Clc1ccccc1N1CCN(CCCCOc2ccn3nnnc3c2)CC1 [Example E98]
5.52 to 6.52

Quick one: Clc1ccccc1N1CCN(CCCCOc2cccn3nccc23)CC1 [Example E9]
5.52 to 6.52

Subsequent entry: ON=Cc1cnn2ccc(OCCCCN3CCN(c4cccc(Cl)c4Cl)CC3)cc12 [Example E30]
6.52 to 7.52

Same again, this time with Clc1cccc(N2CCN(CCCCOc3ccn4ncc(Br)c4c3)CC2)c1Cl [Example E42]
< 5.52

Consider next the compound Clc1ccccc1N1CCN(CCCCOc2ccn3ncc(Cl)c3c2)CC1 [Example E47] in the same way.
5.52 to 6.52

Quick one: CC(=O)c1cnn2ccc(OCCCCN3CCN(c4cccc(Cl)c4Cl)CC3)cc12 [Example E27]
6.52 to 7.52

Repeat with O=Cc1cnn2ccc(COCCCN3CCN(c4cccc(Cl)c4Cl)CC3)cc12 [Example E14]
6.52 to 7.52

Okay, and O=Cc1cnn2cccc(OCCCCN3CCN(c4ccccc4Cl)CC3)c12 [Example E12] ?
5.52 to 6.52

Check O=Cc1cnn2cccc(OCCCCN3CCN(c4cccc(Cl)c4Cl)CC3)c12 [Example E10] too.
6.52 to 7.52

Query COc1ccccc1N1CCN(CCCCOc2cccc3c(C=O)cnn23)CC1 [Example E61] next
< 5.52

Moving on to COc1ccccc1N1CCN(CCCCOc2ccn3ncc(CO)c3c2)CC1 [Example E72]
5.52 to 6.52

Same question, COc1ccc(N2CCN(CCCCOc3ccn4ncc(C=O)c4c3)CC2)cc1 [Example E24] this time
< 5.52

Consider next the compound Clc1cccc(N2CCN(CCCCOc3ccn4nnnc4c3)CC2)c1Cl [Example E63] in the same way.
6.52 to 7.52

----------
- TGT: dopamine D2short receptor (Homo sapiens, UniProt P14416)
- Sequence (P14416 1-414 isoform P14416-2): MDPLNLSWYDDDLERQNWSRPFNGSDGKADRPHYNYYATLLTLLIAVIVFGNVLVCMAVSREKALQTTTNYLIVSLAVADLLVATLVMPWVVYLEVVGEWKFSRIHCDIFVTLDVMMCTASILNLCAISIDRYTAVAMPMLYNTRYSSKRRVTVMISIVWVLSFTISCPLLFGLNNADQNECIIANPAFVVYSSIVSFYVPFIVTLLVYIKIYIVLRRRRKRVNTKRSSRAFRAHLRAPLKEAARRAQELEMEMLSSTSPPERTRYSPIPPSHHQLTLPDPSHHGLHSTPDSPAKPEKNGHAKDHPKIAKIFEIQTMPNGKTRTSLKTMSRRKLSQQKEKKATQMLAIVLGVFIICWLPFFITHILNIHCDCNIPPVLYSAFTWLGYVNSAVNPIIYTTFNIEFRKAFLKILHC
- PROCEDURE DETAILS: [^35S]GTPγS-incorporation assay, intrinsic activity
- STUDY CONDITIONS: read-out: D2short: [^35S]GTPγS intrinsic activity, % activity of quinpirol
Consider the following molecules; for each one, report its Emax.

What is its Emax for dopamine D2short receptor (Homo sapiens, UniProt P14416)? Entry: COC(=O)c1cnn2ccc(OCCCCN3CCN(c4ccccc4OC)CC3)cc12
15 to 40%

Thanks! And O=Cc1cnn2ccc(OCCCCN3CCN(c4ccc(Cl)cc4)CC3)cc12 ?
15 to 40%

Please answer likewise for COc1ccccc1N1CCN(CCCCOc2ccn3ncc(CO)c3c2)CC1
15 to 40%

Now this one: COc1ccccc1N1CCN(CCCCOc2ccn3ncc(I)c3c2)CC1
< 15%

// repeat for COc1ccccc1N1CCN(CCCCOc2ccn3ncc(C(C)=O)c3c2)CC1 and report
15 to 40%

Cool, now COc1ccccc1N1CCN(CCCCOc2ccn3ncc(C)c3c2)CC1
< 15%

// next record Clc1cccc(N2CCN(CCCCOc3ccn4nccc4c3)CC2)c1Cl
15 to 40%

How about COc1ccc(N2CCN(CCCCOc3ccn4nccc4c3)CC2)cc1 ?
< 15%

Repeat for the following molecule: Clc1ccc(N2CCN(CCCCOc3ccn4nccc4c3)CC2)cc1
15 to 40%

Could you do the same for O=Cc1cnn2ccc(OCCCCN3CCN(c4cccc(Cl)c4Cl)CC3)cc12 , please?
15 to 40%

Check COc1ccccc1N1CCN(CCCCOc2cccc3c(C=O)cnn23)CC1 too.
< 15%

----------
Consider the following molecules; for each one, report its Ki.
- TGT: 5-HT1A receptor (Sus scrofa, UniProt A0A4X1UTF5)
- Construct: membrane preparations from porcine cortical material; from tissue; host or cells: porcine cerebral cortex membranes
- Sequence (A0A4X1UTF5 1-422): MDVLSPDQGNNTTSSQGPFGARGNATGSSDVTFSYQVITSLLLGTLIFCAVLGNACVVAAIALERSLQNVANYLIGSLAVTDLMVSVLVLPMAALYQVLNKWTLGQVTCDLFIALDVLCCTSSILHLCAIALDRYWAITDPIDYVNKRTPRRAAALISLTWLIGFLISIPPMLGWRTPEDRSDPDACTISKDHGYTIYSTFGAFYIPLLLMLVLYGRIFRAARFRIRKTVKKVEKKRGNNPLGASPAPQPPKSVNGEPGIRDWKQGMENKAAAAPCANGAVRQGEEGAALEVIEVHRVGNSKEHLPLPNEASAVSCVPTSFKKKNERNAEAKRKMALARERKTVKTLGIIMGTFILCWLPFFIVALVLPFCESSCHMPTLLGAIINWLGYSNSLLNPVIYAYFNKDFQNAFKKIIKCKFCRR
- PROCEDURE DETAILS: radioligand binding, porcine cortical membranes, [^3H]8-OH-DPAT and [^3H]WAY 100635
- STUDY CONDITIONS: porcine cortical membranes

Consider the molecule COC(=O)c1cnn2ccc(OCCCCN3CCN(c4cccc(Cl)c4Cl)CC3)cc12 and give its measured Ki.
< 30 nM

Next entry: Clc1cccc(N2CCN(CCCCOc3ccc4ccnn4c3)CC2)c1Cl
30 to 300 nM

Same thing, different molecule: Clc1ccc(N2CCN(CCCCOc3ccn4nccc4c3)CC2)cc1
30 to 300 nM

Same question, COc1ccc(N2CCN(CCCCOc3ccn4nccc4c3)CC2)cc1 this time
30 to 300 nM

What about this molecule? COc1ccccc1N1CCN(CCCCOc2ccn3ncc(C#N)c3c2)CC1
< 30 nM

Now give it for COc1ccccc1N1CCN(CCCCOc2ccc3c(C=O)cnn3c2)CC1 too.
< 30 nM

Same for Clc1cccc(N2CCN(CCCCOc3ccn4nccc4c3)CC2)c1Cl
30 to 300 nM

Here is the next molecule: COc1ccccc1N1CCN(CCCCOc2ccn3ncc(C=NO)c3c2)CC1 [Example E34]
< 30 nM

And ON=Cc1cnn2ccc(OCCCCN3CCN(c4cccc(Cl)c4Cl)CC3)cc12 [Example E30] ?
< 30 nM

----------
Record form. Attribute: pKi. Fill in for each entry.
- TGT: human D3 receptor (Homo sapiens)
- Construct: expressed in transfected cells; host or cells: Chinese hamster ovary (CHO) cells, membranes
- Sequence (P35462 whole entry): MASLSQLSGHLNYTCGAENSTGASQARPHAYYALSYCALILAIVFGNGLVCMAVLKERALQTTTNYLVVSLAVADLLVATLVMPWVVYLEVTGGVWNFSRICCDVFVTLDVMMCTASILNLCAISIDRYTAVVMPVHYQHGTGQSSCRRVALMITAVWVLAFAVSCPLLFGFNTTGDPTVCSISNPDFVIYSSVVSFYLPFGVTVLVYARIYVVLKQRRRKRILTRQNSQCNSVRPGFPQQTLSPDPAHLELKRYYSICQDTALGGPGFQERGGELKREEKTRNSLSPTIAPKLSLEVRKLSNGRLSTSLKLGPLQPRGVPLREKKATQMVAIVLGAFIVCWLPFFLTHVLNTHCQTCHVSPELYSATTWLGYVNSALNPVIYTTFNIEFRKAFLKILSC
- PROCEDURE DETAILS: radioligand binding with [^3H]spiperone, D3
- STUDY CONDITIONS: [^3H]spiperone, CHO membranes, mean of 2 to 4 experiments
pKi: −log10 of the molar value.

Find pKi (human D3 receptor (Homo sapiens)) for the entry N#Cc1cnn2ccc(OCCCCN3CCN(c4cccc(Cl)c4Cl)CC3)cc12 [Example E36]
> 7.52

Now consider Clc1cccc(N2CCN(CCCCOc3cc4ccccn4n3)CC2)c1Cl [Example E1] .
> 7.52

Ok, now Clc1ccccc1N1CCN(CCCCOc2cccn3nccc23)CC1 [Example E9]
> 7.52

Then COc1ccccc1N1CCN(CCCCOc2ccn3ncc(CNC(C)=O)c3c2)CC1 [Example E81] ?
> 7.52

How about COc1ccc(N2CCN(CCCCOc3ccn4nccc4c3)CC2)cc1 [Example E18] ?
6.52 to 7.52

And then Clc1cccc(N2CCN(CCCCOc3ccn4nccc4c3)CC2)c1Cl [Example E15] , what is it?
> 7.52

Continue with O=Cc1cnn2ccc(OCCCCN3CCN(c4ccccc4Cl)CC3)cc12 [Example E23]
> 7.52

// next record O=Cc1cnn2ccc(OCCCCN3CCN(c4ccc(O)cc4)CC3)cc12 [Example E26]
6.52 to 7.52

Moving on to the next compound: CC(=O)c1cnn2ccc(OCCCCN3CCN(c4cccc(Cl)c4Cl)CC3)cc12 [Example E27]
> 7.52

----------
Give pKi for every item shown.
- TGT: 5-HT2 receptor (Sus scrofa, UniProt P50129)
- Construct: membrane preparations from porcine cortical material; from tissue; host or cells: porcine cerebral cortex membranes
- PROCEDURE DETAILS: radioligand binding, porcine cortical membranes, [^3H]ketanserin
- STUDY CONDITIONS: porcine cortical membranes, [^3H]ketanserin
pKi: −log10 of the molar value.

What pKi value was documented for this compound, N#Cc1cnn2ccc(OCCCCN3CCN(c4cccc(Cl)c4Cl)CC3)cc12 ?
5.52 to 6.52

How about this compound: COc1ccccc1N1CCN(CCCCOc2ccn3ncc(Cl)c3c2)CC1
5.52 to 6.52

Entry Clc1cccc(N2CCN(CCCOCc3ccn4nccc4c3)CC2)c1Cl please
6.52 to 7.52

Next: Clc1ccc(N2CCN(CCCCOc3ccn4nccc4c3)CC2)cc1
5.52 to 6.52

Okay, and Clc1ccccc1N1CCN(CCCCOc2ccc3ccnn3c2)CC1 ?
5.52 to 6.52

Entry to check: O=Cc1cnn2ccc(OCCCCN3CCN(c4ccc(Cl)cc4)CC3)cc12
5.52 to 6.52

Next entry: Clc1cccc(N2CCN(CCCCOc3ccc4ccnn4c3)CC2)c1Cl
6.52 to 7.52

Moving on to the next compound: ON=Cc1cnn2ccc(OCCCCN3CCN(c4ccccc4Cl)CC3)cc12 [Example E32]
6.52 to 7.52

// repeat for COc1ccccc1N1CCN(CCCCOc2ccn3ncc(C=NO)c3c2)CC1 [Example E34] and report
5.52 to 6.52

// repeat for COc1ccccc1N1CCN(CCCCOc2cccn3ncc(C=O)c23)CC1 and report
5.52 to 6.52

Same again, this time with Clc1ccccc1N1CCN(CCCCOc2cc3ccccn3n2)CC1
5.52 to 6.52

Try this compound too: CC(=O)c1cnn2ccc(OCCCCN3CCN(c4ccccc4Cl)CC3)cc12
6.52 to 7.52

Please give the result for COc1ccccc1N1CCN(CCCCOc2cccn3nccc23)CC1 too.
5.52 to 6.52

COc1ccccc1N1CCN(CCCCOc2ccn3ncc(CNC(C)=O)c3c2)CC1 ?
5.52 to 6.52

What about Clc1cccc(N2CCN(CCCCOc3cc4ccccn4n3)CC2)c1Cl [Example E1] ?
6.52 to 7.52

# iterate: Clc1ccccc1N1CCN(CCCCOc2cccc3ccnn23)CC1
6.52 to 7.52

How about this compound: Oc1ccc(N2CCN(CCCCOc3ccn4nccc4c3)CC2)cc1
5.52 to 6.52

Repeat with COc1ccccc1N1CCN(CCCCOc2ccn3nnnc3c2)CC1
< 5.52

And O=Cc1c(OCCCCN2CCN(c3ccccc3Cl)CC2)nn2ccccc12 ?
5.52 to 6.52
